molecular target: T1, HLA-A*02:01 (human); assay: UV peptide exchange ELISA (anti-b2m); yield grade: + >10%, ++ >20%, +++ >50, ++++ >75%
T1 construct: captured on streptavidin plates; also called peptide-receptive MHC molecules

Binder | peptide exchange yield
FVDPNGKISL | 50 to 75%
HLFETISQA | 50 to 75%
VLLGENVEL | 50 to 75%
LLPELRDWGV | 50 to 75%
KILPDLNTV | > 75%
NVDENVAEL | 20 to 50%
RVAFKINSV | 50 to 75%
VLPDDLSGV | 50 to 75%
TLDGNPFLV | 50 to 75%
YSDDIPHAL | 20 to 50%
EVISKLYAV | 50 to 75%
VLFPMDLAL | 50 to 75%
FLGDPPPGL | 50 to 75%
GLIDLEANYL | > 75%
NLDKLYHGL | 10 to 20%
YVIDPIKGL | 50 to 75%
